B1: LINE1-full (parent)
chain: UACGUAGGUGGUUUUCCCCUGAUAGUGCUAAGGGGGCCUGGAAGUUUGGACUGGGCAGAGCUCAACACAGCGUGGCAAAGUGGCUGUGGCUAGACUGCCUCUCUGGAUUCCUCGUCACUCAGCAGGGCAUCUCUGAGAGAAAUGCC

Variants of: B1
procedure-details: self-cleavage, relative activity (ratio to wild type); higher = more cleavage; in vitro, sequencing; the parent is a self-cleaving ribozyme
test-readout: self-cleavage
Give the value as a plain number.

Examples from the recorded data:
# variant-annotation, self-cleavage
rows = [
    ("U104C A117G", 1.23),
    ("A77C G114A", 0.63),
    ("A78G A129C", 1.96),
    ("U12G A22C", 1.68),
    ("U87C U115C", 0.31),
    ("U23A A78G", 1.14),
    ("C38U C84G", 0.09),
    ("A67U U85C", 0.01),
    ("A2C A31G", 1.34),
    ("G86A A124C", 0.03),
]

Documented self-cleavage of U1C G7U : 0.75

Documented self-cleavage of U14A U46C : 1.17

Documented self-cleavage of U47C U62C : 0.12

Documented self-cleavage of U52C A69G : 0.11

Documented self-cleavage of U102C G105A : 2.14
